Overview of reported pIC50 across a group of compounds:
target: MMP-13 catalytic domain (Homo sapiens, UniProt P45452); test: Thiopeptolide substrate hydrolysis inhibition assay, MMP-13 catalytic domain; format: biochemical; conditions: MMP-13 catalytic domain; read-out: MMP-13CD IC50
The read-out pIC50 is expressed as -log10 of concentration in moles per litre.

q: What does the data say about its pIC50? Entry: COc1cc(CNC(=O)c2cc3c(=O)n(Cc4ccc(C(=O)O)cc4)cnc3cn2)ccc1O [Compound Example 15]
a: 7.70

q: Now this one: COc1ccc(CNC(=O)c2cc3c(=O)n(Cc4ccc(C(=O)O)cc4)cnc3cn2)cc1 [Compound Example 1]
a: 8.11

q: Also need COc1cccc(CNC(=O)c2cc3c(=O)n(Cc4ccc(C(=O)O)cc4)cnc3cn2)c1 [Compound Example 2] , thanks.
a: 8.89

q: Would you kindly repeat that for O=C(O)c1ccc(Cn2cnc3cnc(C(=O)NCc4cccnc4)cc3c2=O)cc1 [Compound Example 3] ?
a: 7.49

q: Another compound to check: O=C(O)c1ccc(Cn2cnc3cnc(C(=O)NCc4ccc(F)c(F)c4)cc3c2=O)cc1 [Compound Example 14]
a: 8.28

q: Now this one: O=C(O)c1ccc(Cn2cnc3cnc(C(=O)NCc4ccncc4)cc3c2=O)cc1 [Compound Example 5]
a: 8.30

----------
target: MMP-3 catalytic domain (Homo sapiens)
reported.endpoint: IC50 (µM)
Give the value, in units of µM, as a plain number.

In the examples that follow, each entry is paired with its recorded IC50.
line_notation=O=C(O)c1ccc(Cn2cnc3cnc(C(=O)NCc4cccc(Cl)c4)cc3c2=O)cc1 endpoint_value=41
line_notation=O=C(O)c1ccc(Cn2cnc3cnc(C(=O)NCc4ccncc4)cc3c2=O)cc1 endpoint_value=81
line_notation=O=C(O)c1ccc(Cn2cnc3cnc(C(=O)NCc4ccc(F)cc4)cc3c2=O)cc1 endpoint_value=33

Lab note: next molecule to report on.
q: Using the record for `COc1ccc(CNC(=O)c2cc3c(=O)n(Cc4ccc(C(=O)O)cc4)cnc3cn2)cc1` , report its IC50.
a: 26

----------
Here, each record is paired with measured IC50 data.
molecular target: MMP-3 catalytic domain (Homo sapiens, UniProt P08254)
Sequence (P08254 100-272 limits assumed): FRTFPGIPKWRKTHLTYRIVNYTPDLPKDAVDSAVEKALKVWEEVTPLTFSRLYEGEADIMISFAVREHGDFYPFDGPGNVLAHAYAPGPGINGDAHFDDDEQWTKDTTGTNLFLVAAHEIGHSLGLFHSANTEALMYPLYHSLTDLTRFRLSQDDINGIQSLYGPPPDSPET

Consider the following illustrative entries.
compound="O=C(O)c1ccc(Cn2cnc3cnc(C(=O)NCc4ccc(Cl)cc4)cc3c2=O)cc1 [Compound Example 4]" experimental_system="MMP-3 catalytic domain (Homo sapiens, UniProt P08254)" endpoint_value="> 100 µM"
compound="O=C(O)c1ccc(Cn2cnc3cnc(C(=O)NCc4cccc(F)c4)cc3c2=O)cc1 [Compound Example 11]" experimental_system="MMP-3 catalytic domain (Homo sapiens, UniProt P08254)" endpoint_value="> 100 µM"

q: Reported IC50 for O=C(O)c1ccc(Cn2cnc3cnc(C(=O)NCc4ccc(C(F)(F)F)cc4)cc3c2=O)cc1 [Compound Example 12] : what is it?
a: > 100 µM

q: Input O=C(O)c1ccc(Cn2cnc3cnc(C(=O)NCc4cccc(C(F)(F)F)c4)cc3c2=O)cc1 [Compound Example 13]
a: 48 µM

----------
biological target: MMP-13 catalytic domain (Homo sapiens, UniProt P45452); assay: Thiopeptolide substrate hydrolysis inhibition assay, MMP-13 catalytic domain; type: biochemical
Mark class 1 only when IC50 stays strictly below 20 nM. Values equal to the cut-off are class 0.

Examples from the recorded data:
line_notation=O=C(O)c1ccc(Cn2cnc3cnc(C(=O)NCc4ccc(Cl)cc4)cc3c2=O)cc1 category_label="class 1"
line_notation=O=C(O)c1ccc(Cn2cnc3cnc(C(=O)NCc4cccc(C(F)(F)F)c4)cc3c2=O)cc1 category_label="class 1"
line_notation=O=C(O)c1ccc(Cn2cnc3cnc(C(=O)NCc4cccc(F)c4)cc3c2=O)cc1 category_label="class 1"
line_notation=O=C(O)c1ccc(Cn2cnc3cnc(C(=O)NCc4ccc(F)cc4)cc3c2=O)cc1 category_label="class 1"
line_notation=CSc1ccc(CNC(=O)c2cc3c(=O)n(Cc4ccc(C(=O)O)cc4)cnc3cn2)cc1 category_label="class 1"

Now examine the next entry.
q: Bench note: check whether `O=C(O)c1ccc(Cn2cnc3cnc(C(=O)NCc4ccc(C(F)(F)F)cc4)cc3c2=O)cc1` shows IC50 below 20 nM
a: class 0

----------
// reported pIC50 for each item listed
target: MMP-14 catalytic domain (Homo sapiens)
pIC50: −log10 of the molar value.

These solved cases illustrate the format of a correct answer.
line_notation=O=C(O)c1ccc(Cn2cnc3cnc(C(=O)NCc4ccc(F)cc4)cc3c2=O)cc1 endpoint_value="< 4.00"
line_notation=O=C(O)c1ccc(Cn2cnc3cnc(C(=O)NCc4cccc(C(F)(F)F)c4)cc3c2=O)cc1 endpoint_value="< 4.00"
line_notation=COc1cc(CNC(=O)c2cc3c(=O)n(Cc4ccc(C(=O)O)cc4)cnc3cn2)ccc1O endpoint_value="< 4.52"

q: What pIC50 appears in the records for this compound with MMP-14 catalytic domain (Homo sapiens)? `O=C(O)c1ccc(Cn2cnc3cnc(C(=O)NCc4cccc(F)c4)cc3c2=O)cc1`
a: < 4.00

q: Then `O=C(O)c1ccc(Cn2cnc3cnc(C(=O)NCc4ccc(C(F)(F)F)cc4)cc3c2=O)cc1` ?
a: < 4.00

q: And what about the compound `O=C(O)c1ccc(Cn2cnc3cnc(C(=O)NCc4ccccc4)cc3c2=O)cc1` ?
a: < 4.00

q: Would you mind doing `COc1ccc(CNC(=O)c2cc3c(=O)n(Cc4ccc(C(=O)O)cc4)cnc3cn2)cc1` as well?
a: < 4.00

q: Another compound to look at: `O=C(O)c1ccc(Cn2cnc3cnc(C(=O)NCc4ccc(Cl)cc4)cc3c2=O)cc1`
a: < 4.00

q: # iterate: `CSc1ccc(CNC(=O)c2cc3c(=O)n(Cc4ccc(C(=O)O)cc4)cnc3cn2)cc1`
a: < 4.52

----------
molecular target: MMP-12 catalytic domain (Homo sapiens)
Sequence (P39900 106-263 limits assumed): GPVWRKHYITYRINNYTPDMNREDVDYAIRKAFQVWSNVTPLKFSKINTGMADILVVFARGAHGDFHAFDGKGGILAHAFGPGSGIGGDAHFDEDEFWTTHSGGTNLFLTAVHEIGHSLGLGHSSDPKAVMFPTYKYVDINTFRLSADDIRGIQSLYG
Reported IC50 values are given for each entry in this list.

line_notation=O=C(O)c1ccc(Cn2cnc3cnc(C(=O)NCc4ccccc4)cc3c2=O)cc1 experimental_system="MMP-12 catalytic domain (Homo sapiens)" endpoint_value="> 30 µM"
line_notation=O=C(O)c1ccc(Cn2cnc3cnc(C(=O)NCc4ccc(F)cc4)cc3c2=O)cc1 experimental_system="MMP-12 catalytic domain (Homo sapiens)" endpoint_value="> 30 µM"
line_notation=CSc1ccc(CNC(=O)c2cc3c(=O)n(Cc4ccc(C(=O)O)cc4)cnc3cn2)cc1 experimental_system="MMP-12 catalytic domain (Homo sapiens)" endpoint_value="14 µM"

Attention now shifts to the item below.
q: Param readout = IC50; param system = MMP-12 catalytic domain (Homo sapiens); param query = `COc1cc(CNC(=O)c2cc3c(=O)n(Cc4ccc(C(=O)O)cc4)cnc3cn2)ccn1` ; response: value
a: > 100 µM

----------
assay: Pharmacokinetics in Sprague-Dawley rats (single IV or oral dose); type: in vivo, rat; settings: rat, blood; Sprague-Dawley rats, single 5 mg/kg intravenous dose; read-out: IV T1/2 (converted)
reported.endpoint: half-life (h)
Provide only the numeric value, understood in h.

molecule="COc1ccc(CNC(=O)c2cc3c(=O)n(Cc4ccc(C(=O)O)cc4)cnc3cn2)cc1 [Compound Example 1]" unit=h endpoint_value=2.1

Here is the next item to consider.
q: Look at this molecule and give its reported half-life. COc1ccc(CNC(=O)c2cc3c(=O)n(Cc4ccc(C(=O)O)cc4)c(=O)n(C)c3cn2)cc1 [Reference Compound 1, reference compound]
a: 0.6

----------
# IC50 listing for each entry below
Target: MMP-17 catalytic domain (Homo sapiens)
Sequence (Q9ULZ9 126-295 limits assumed): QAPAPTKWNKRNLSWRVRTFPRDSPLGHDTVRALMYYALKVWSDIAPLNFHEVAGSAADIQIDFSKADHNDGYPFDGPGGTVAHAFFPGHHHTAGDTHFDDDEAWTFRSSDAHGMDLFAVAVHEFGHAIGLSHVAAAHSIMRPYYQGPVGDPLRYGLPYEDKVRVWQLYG

Answered examples (3):
line_notation=O=C(O)c1ccc(Cn2cnc3cnc(C(=O)NCc4ccc(F)cc4)cc3c2=O)cc1 experimental_system="MMP-17 catalytic domain (Homo sapiens)" endpoint_value="> 100 µM"
line_notation=COc1ccc(CNC(=O)c2cc3c(=O)n(Cc4ccc(C(=O)O)cc4)cnc3cn2)cc1 experimental_system="MMP-17 catalytic domain (Homo sapiens)" endpoint_value="> 100 µM"
line_notation=CSc1ccc(CNC(=O)c2cc3c(=O)n(Cc4ccc(C(=O)O)cc4)cnc3cn2)cc1 experimental_system="MMP-17 catalytic domain (Homo sapiens)" endpoint_value="> 100 µM"

q: Recorded IC50 of `O=C(O)c1ccc(Cn2cnc3cnc(C(=O)NCc4ccccc4)cc3c2=O)cc1` , please.
a: > 100 µM

q: Proceed to `O=C(O)c1ccc(Cn2cnc3cnc(C(=O)NCc4cccc(C(F)(F)F)c4)cc3c2=O)cc1`
a: > 100 µM

q: And `O=C(O)c1ccc(Cn2cnc3cnc(C(=O)NCc4ccc(Cl)cc4)cc3c2=O)cc1` ?
a: > 100 µM

q: And for `O=C(O)c1ccc(Cn2cnc3cnc(C(=O)NCc4cccc(F)c4)cc3c2=O)cc1` ?
a: > 100 µM

q: Same question, `COc1cccc(CNC(=O)c2cc3c(=O)n(Cc4ccc(C(=O)O)cc4)cnc3cn2)c1` this time
a: > 100 µM

q: What about this compound? `O=C(O)c1ccc(Cn2cnc3cnc(C(=O)NCc4ccc(F)c(F)c4)cc3c2=O)cc1`
a: > 100 µM

q: Next record, please: `O=C(O)c1ccc(Cn2cnc3cnc(C(=O)NCc4ccc(C(F)(F)F)cc4)cc3c2=O)cc1`
a: > 100 µM

q: Likewise for `O=C(O)c1ccc(Cn2cnc3cnc(C(=O)NCc4ccncc4)cc3c2=O)cc1` ?
a: > 100 µM
